Listing: Zeta-potential of siRNA-lipid complexes of selected compounds
- assayRemarks: Zeta-potential of siRNA-lipid complexes (Malvern Zetasizer)
- Assay type: physicochemical
- measurementSetup: pH = 7.4, N/P = 5
Could you give me the number in mV? Just the number is fine.

Worked set:
CCCCC/C=C\C/C=C\CCCCCCCC(=O)NC(CS)C(=O)NC(Cc1cnc[nH]1)C(=O)NCCNC(=O)CCN(CCN)CCC(=O)NCCNC(=O)C(Cc1cnc[nH]1)NC(=O)C(CS)NC(=O)CCCCCCC/C=C\C/C=C\CCCCC (stereo not drawn) [EHCLn]
−17.04
CCCCCCCC/C=C\CCCCCCCC(=O)N[C@@H](CS)C(=O)NCCNC(=O)CCN(CCN)CCC(=O)NCCNC(=O)[C@H](CS)NC(=O)CCCCCCC/C=C\CCCCCCCC
−16.84

Looking for the measured Zeta-potential of siRNA-lipid complexes of CCCCCCCC/C=C\CCCCCCCC(=O)NC(CS)C(=O)NCCNC(=O)CCN(CCCNCCCCNCCCN)CCC(=O)NCCNC(=O)C(CS)NC(=O)CCCCCCC/C=C\CCCCCCCC (stereo not drawn) , can you help?
26.60

Entry source: patent US11129845B2
